Tested on: SGC-7901 (gastric carcinoma) cell line
Assay: MTT cytotoxicity assay, SGC-7901
Type: cell-based
Conditions: Homo sapiens, 48 h, mean of three independent experiments, read-out: IC50 (μM) Mean ± SD, SGC-7901
Form field: IC50 (one value per entry).
// return numeric value only (unit: µM, not printed)

Recorded IC50, per entry:
{"compound": "Cc1ccccc1Cn1c2ccccc2c2cc(C(=O)OCCCOC(=O)c3cc4c5ccccc5n(Cc5ccccc5C)c4cn3)ncc21 [Compound 6g]", "IC50 / µM": 29.4}
{"compound": "Cc1ccccc1Cn1c2ccccc2c2cc(C(=O)OCCCCOC(=O)c3cc4c5ccccc5n(Cc5ccccc5C)c4cn3)ncc21 [Compound 6h]", "IC50 / µM": 17.8}
{"compound": "O=C(OCCCCCCOC(=O)c1cc2c3ccccc3n(Cc3ccccc3F)c2cn1)c1cc2c3ccccc3n(Cc3ccccc3F)c2cn1 [Compound 6v]", "IC50 / µM": 8.6}
{"compound": "Cc1ccc(Cn2c3ccccc3c3cc(C(=O)OCCCOC(=O)c4cc5c6ccccc6n(Cc6ccc(C)cc6)c5cn4)ncc32)cc1 [Compound 6m]", "IC50 / µM": 18.4}
{"compound": "Cc1ccccc1Cn1c2ccccc2c2cc(C(=O)OCCCCCCOC(=O)c3cc4c5ccccc5n(Cc5ccccc5C)c4cn3)ncc21 [Compound 6j]", "IC50 / µM": 26.3}

Request: Looking for the measured IC50 of Cc1ccc(Cn2c3ccccc3c3cc(C(=O)OCCCCCOC(=O)c4cc5c6ccccc6n(Cc6ccc(C)cc6)c5cn4)ncc32)cc1 [Compound 6o] , can you help?
Response: 17.2

Request: Looking for the measured IC50 of O=C(OCCCCCCOC(=O)c1cc2c3ccccc3n(Cc3ccccc3)c2cn1)c1cc2c3ccccc3n(Cc3ccccc3)c2cn1 [Compound 6d] , can you help?
Response: 58.4
